Each record here notes measured growth.
System: SW-620 colon
procedure-details: NCI-60 one-dose screen, 48 h (100 = growth as untreated, 0 = no growth, -100 = all killed)
condition-details: 10 µM unless noted
This is part of a sample that, as a whole, favours compounds with a hit. Of some 83,000 tested, about 20% had one in any assay.

>  <compound>
CC(=O)Nc1ccc(S(=O)(=O)NC(CCC(=O)Nc2ccc(Cl)cc2)C(=O)O)cc1 (centres undefined)

>  <growth (%)>
99.6

$$$$
>  <compound>
CC(=O)Nc1ccc(S(=O)(=O)N2C(=O)CCC2C(=O)Nc2ccc(Br)cc2)cc1 (centres undefined)

>  <growth (%)>
38.2

$$$$
>  <compound>
O=S(=O)(c1ccccc1)n1ccc(-c2ccc3c(c2)CCO3)n1

>  <growth (%)>
93.6

$$$$
>  <compound>
CN(C)C/C=C/C(=O)Nc1cc2c(Nc3ccc(F)c(Cl)c3F)ncnc2cc1OCCOC(F)F

>  <growth (%)>
3.09

$$$$
>  <compound>
Cc1cc(C)c(S(=O)(=O)N2CCN(c3cc4c(cc3F)c(=O)c(C(=O)O)cn4C3CC3)CC2)c(C)c1

>  <growth (%)>
79.8

$$$$
>  <compound>
COc1cc(C(=O)OCCCCCCCCCCC[P+](c2ccccc2)(c2ccccc2)c2ccccc2)ccc1O

>  <growth (%)>
-0.568

$$$$
>  <compound>
O=C(/C=C/CN1CCCCC1)Nc1cc2c(Nc3ccc(F)c(Cl)c3F)ncnc2cc1OCCOC(F)F

>  <growth (%)>
10.3

$$$$
>  <compound>
C=C1C(=O)O[C@H]2[C@H]1CC/C(COC(=O)NCCc1ccc(OC)cc1)=C\CC[C@@]1(C)O[C@@H]21

>  <growth (%)>
-65.6

$$$$
>  <compound>
COc1ccc(C(=O)/C=C/c2ccc(/C=C/c3cc(OC)c(OC)c(OC)c3)cc2)cc1

>  <growth (%)>
39.3

$$$$

* * *

Tested on: NCI-H322M lung
procedure-details: NCI-60 one-dose screen, 48 h (100 = growth as untreated, 0 = no growth, -100 = all killed)
condition-details: 10 µM unless noted
About 83,000 compounds went through this panel and 20% of them were active in at least one assay; those are over-represented in the sample as a whole.
Listed below: growth values for each entry.
quantity-name: growth (%)

>  <molecule>
CCCCCCCCCCCCNC(=S)N/N=C/c1ccc(Cl)c(Cl)c1

>  <test-value>
112

$$$$
>  <molecule>
Cc1ccc(Oc2nc3ccccc3cc2-c2nnc(Cn3c(COc4ccccc4)nc4ccccc43)o2)cc1

>  <test-value>
92.3

$$$$
>  <molecule>
CCN(C(=O)c1cc2ncccc2[nH]1)[C@H]1CCC[C@@H](NCc2cccc(F)c2)C1

>  <test-value>
80.6

$$$$
>  <molecule>
Cc1cc(C(=O)O)c(N)c(C)n1

>  <test-value>
106

$$$$
>  <molecule>
CNC(C)=O

>  <test-value>
92

$$$$
>  <molecule>
COc1ccc(C2=CC(c3ccc(Oc4ccnc5cc(Cl)ccc45)c(OC)c3)c3c(nc(OC)[nH]c3=O)N2)cc1 (stereo not given)

>  <test-value>
72.9

$$$$
>  <molecule>
CN(C)c1ncc(-c2ccc(C(F)(F)F)cc2)c(NC2CCCCCC2)n1

>  <test-value>
95.4

$$$$
>  <molecule>
CCOC(=O)C(Cc1ccccc1)n1c(O)c(C=Nc2ccc(C(=O)OCCN(CC)CC)cc2)sc1=O (stereo not given)

>  <test-value>
94.4

$$$$
>  <molecule>
COc1cc(Cn2c(SCCC(=O)Nc3ccc(F)cc3)nc3ccccc3c2=O)cc(OC)c1OC

>  <test-value>
81.1

$$$$
>  <molecule>
COc1cc2nc(Cl)nc(NCCO)c2cc1OC

>  <test-value>
105

$$$$

* * *

Tested on: HOP-62 NSCLC
procedure-details: NCI-60 one-dose screen, 48 h
condition-details: 10 µM unless noted
Compounds without any hit were thinned out: in the full panel of roughly 83,000, 20% have a hit. The source made the active and inactive calls. The calls were made as follows: active = growth percent below 10; inactive = the rest.
Outcome codes: true (1) for active, false (0) for inactive

>  <compound>
O=C(CNC1CCCCC1)Nc1ccc(-c2nc3ccccc3s2)cc1

>  <target-under-test>
HOP-62 NSCLC

>  <cat>
false (0)

$$$$
>  <compound>
CC(Br)C(OC(=O)c1ccccc1Cl)c1cc2c(cc1Br)OCO2 (stereo not given)

>  <target-under-test>
HOP-62 NSCLC

>  <cat>
false (0)

$$$$
>  <compound>
CCCCNc1nnc(-c2cc(-c3cc4ccccc4o3)nn2-c2ccccc2)o1

>  <target-under-test>
HOP-62 NSCLC

>  <cat>
false (0)

$$$$
>  <compound>
CC(=O)Nc1nc(C(=O)N2N=C(C)/C(=C/c3cccs3)C2=O)cs1

>  <target-under-test>
HOP-62 NSCLC

>  <cat>
false (0)

$$$$
>  <compound>
COc1ccc(/C=C/C(=O)c2cc(OC)c(OC)c(OC)c2)cc1OCc1cn(Cc2ccc(F)cc2)nn1

>  <target-under-test>
HOP-62 NSCLC

>  <cat>
true (1)

$$$$
>  <compound>
CCSc1nnc(NC(=O)COc2ccc(Cl)cc2C)s1

>  <target-under-test>
HOP-62 NSCLC

>  <cat>
false (0)

$$$$
>  <compound>
O=c1[nH]c2ccccc2cc1-c1nnc(Cc2ccccc2)o1

>  <target-under-test>
HOP-62 NSCLC

>  <cat>
false (0)

$$$$
>  <compound>
COc1cc(-n2nc(C(=O)Nc3ccc(C(=O)O)cc3)nc2-c2ccccc2)cc(OC)c1OC

>  <target-under-test>
HOP-62 NSCLC

>  <cat>
false (0)

$$$$
>  <compound>
COc1ccc(-c2nc3sccn3c2-c2ccnc(NCCNS(=O)(=O)c3ccc(C(F)(F)F)cc3)n2)cc1

>  <target-under-test>
HOP-62 NSCLC

>  <cat>
false (0)

$$$$
>  <compound>
COc1cccc2cc(-c3cc4ccccc4[nH]3)c(=NC(=O)c3ccc(Cl)cc3)oc12

>  <target-under-test>
HOP-62 NSCLC

>  <cat>
false (0)

$$$$

* * *

Test system: SF-539 CNS
procedure-details: NCI-60 one-dose screen, 48 h (100 = growth as untreated, 0 = no growth, -100 = all killed)
condition-details: 10 µM unless noted
The panel holds about 83,000 compounds, 20% with a hit somewhere; the sample as a whole holds those more often.
The reader will find reported growth values listed item by item below.

>  <molecule>
COc1ccc(-c2nnc(COc3ccc(NS(=O)(=O)c4ccc(OC)cc4)cc3F)o2)cc1

>  <growth, %>
80.5

$$$$
>  <molecule>
O=C(CCC(=O)OC1CCCC1)OC1CCCC1

>  <growth, %>
87.8

$$$$
>  <molecule>
COC1=CC(c2ccc[nH]2)=N/C1=C\c1[nH]c(C)c(C(=O)CCC(=O)Oc2ccc3c(c2)CCC2C3CC[C@]3(C)[C@@H](O)CC[C@@H]23)c1C (stereo not given in full)

>  <growth, %>
-18.9

$$$$
>  <molecule>
COc1ccc(Cn2cc(COc3cc(/C=C/C(=O)c4cc(OC)c(OC)c(OC)c4)ccc3OC)nn2)cc1

>  <growth, %>
49.2

$$$$
>  <molecule>
NC(=S)NN=C1CCCCC1

>  <growth, %>
99.7

$$$$

* * *

Test system: DU-145 prostate
procedure-details: NCI-60 one-dose screen, 48 h (100 = growth as untreated, 0 = no growth, -100 = all killed)
condition-details: 10 µM unless noted
About 83,000 compounds went through this panel and 20% of them were active in at least one assay; those are over-represented in the sample as a whole.
growth listing for selected molecules.

>  <substance-smiles>
CC(C)(C)OC(=O)N[C@@H](Cc1ccccc1)C(=O)N(Cc1ccccc1)C1(C(=O)NCc2ccccc2)CCN(Cc2ccccc2)CC1

>  <unit-abbrev>
%

>  <growth>
75.6

$$$$
>  <substance-smiles>
COc1cc(NC(=O)CCl)ccc(=O)c1

>  <unit-abbrev>
%

>  <growth>
83.5

$$$$
>  <substance-smiles>
CCCCNc1nnc(-c2cc(-c3cc4ccccc4o3)nn2-c2ccccc2)o1

>  <unit-abbrev>
%

>  <growth>
102

$$$$
>  <substance-smiles>
COc1cc(CCn2nnc3c(Nc4ccc(N5CCOCC5)cc4)ncnc32)cc(OC)c1

>  <unit-abbrev>
%

>  <growth>
99.3

$$$$
>  <substance-smiles>
OCc1c(-c2ccccc2)nc2sccn12

>  <unit-abbrev>
%

>  <growth>
109

$$$$
>  <substance-smiles>
CN(C)C/C=C/C(=O)Nc1cc2c(Nc3cccc(Cl)c3F)ncnc2cc1OCCOC(F)F

>  <unit-abbrev>
%

>  <growth>
31.3

$$$$
>  <substance-smiles>
COc1cc(/C=C\c2cc(OC)c(OC)c(OC)c2)cc(N/C=C\C(=O)c2c[nH]c3ccccc23)c1OC

>  <unit-abbrev>
%

>  <growth>
41.7

$$$$
>  <substance-smiles>
Cc1ccc2nc(-c3c(N)n[nH]c3CCCO)[nH]c(=O)c2c1

>  <unit-abbrev>
%

>  <growth>
121

$$$$
>  <substance-smiles>
Cc1ccc(Oc2nc3ccccc3cc2-c2nnc(Cn3c(COc4ccccc4)nc4ccccc43)o2)cc1

>  <unit-abbrev>
%

>  <growth>
63.5

$$$$
>  <substance-smiles>
COc1ccc(/C(=N\O)c2cc(OC)c(OC)c(OC)c2)c(OC)c1N

>  <unit-abbrev>
%

>  <growth>
15.3

$$$$

Measured values drawn from PubChem BioAssay (NCI) for this set.
